Origin of the recorded values: patent US8629143B2

- measuredOn: KCNQ 2/3 channels (HEK293 cells stably expressing human KCNQ2 and KCNQ3 subunits) (Homo sapiens, UniProt O43525+O43526)
- Construct: expressed in transfected cells; host or cells: HEK293
- assayProtocol: KCNQ2/3 channel activation, thallium flux FLIPR assay with BTC-AM dye
- Type: cell-based
- conditionParameters: HEK293; maximum response relative to the response produced by 10 μM retigabine (set at 100%); read-out: Max. %
Each entry below lists one item and its recorded Emax value.
Number in %, nothing else.

Record O=C(CC12CC3CC(CC(C3)C1)C2)Nn1nc(C2CCCCC2)c2ccccc2c1=O . Reported Emax: 243

Record O=C(Cc1cc(F)cc(F)c1)Nn1nc(-c2ccccc2)c2cc(F)ccc2c1=O . Reported Emax: 192

Record Cc1ccc(-c2nn(NC(=O)Cc3cc(F)cc(F)c3)c(=O)c3ccccc23)c(C)c1 . Reported Emax: 164

Record O=C(Cc1ccc(Cl)cc1)Nn1nc(Cc2ccccc2)c2ccccc2c1=O . Reported Emax: 109

Record O=C(Cc1ccc(Cl)cc1)Nn1nc(C(F)(F)F)c2ccccc2c1=O . Reported Emax: 47

Record O=C(CCc1ccccc1)Nn1nc(C(F)(F)F)c2ccccc2c1=O . Reported Emax: 116

Record Cc1ccc(-c2nn(NC(=O)CC3CC4CCC3C4)c(=O)c3ccccc23)c(C)c1 (racemic) . Reported Emax: 157

Record O=C(Cc1ccc(Cl)cc1)Nn1nc(-c2ccccc2)c2c(c1=O)CCCC2 . Reported Emax: 123
